Please go through the items and note down their pIC50.
- Assayed system: CyclinE1/CDK2 (Homo sapiens, UniProt P24864)
- Construct: purchased Eurofins, discovery 14-475
- Assay summary: Fluorescence Polarization (FP) competitive binding assay, Cyclin E1/Cdk2
- Settings: 10 nM Cyclin E1/Cdk2, 2 nM FAM probe; average of 2-3 independent experiments; read-out: Cyclin E FP IC50
*1 amine or outer side, *2 acyl side, *3 side chain or, on linkers, in order; H or OH if unused. Where a SMILES comes first, the peptide text is derived from it. Bridges are numbered along the chain shown (N, C = ends). [ ]: non-standard residue; d: D form. The star is where a group is joined. NMePhe(2-(4-MorPh),5-Cl) = CN[C@@H](Cc1cc(Cl)ccc1-c1ccc(N2CCOCC2)cc1)C(=O)O; NMehhhLys(Me) = CN([C@@H](CCCCCCCN(C)[*:3])C(=O)[*:2])[*:1]; X156 = CN([C@@H](Cc1cc(Cl)cc2ccccc12)C(=O)[*:2])[*:1]; cBuCO(3,3-F2-1-CF3) = O=C(C1(C(F)(F)F)CC(F)(F)C1)*; Pro(trans-4-F) = O=C(O)[C@@H]1C[C@@H](F)CN1; Gly(cPr) = N[C@H](C(=O)O)C1CC1
// field semantics: pIC50 = negative decimal log of concentration (mol/L)

Name the reported pIC50 value associated with the compound CC(C)C[C@@H]1NC(=O)[C@@H](N(C)C(=O)[C@@H](NC(=O)[C@@H]2C[C@@H](F)CN2C(=O)C2(C(F)(F)F)CC(F)(F)C2)C2CC2)CCCCCCCN(C)C(=O)[C@H](Cc2cc(Cl)ccc2-c2ccc(N3CCOCC3)cc2)N(C)C1=O [Example 261] ({cBuCO(3,3-F2-1-CF3)}-[Pro(trans-4-F)][Gly(cPr)][NMehhhLys(Me)]L[NMePhe(2-(4-MorPh),5-Cl)]; lactam 3-C)
6.37

Name the reported pIC50 value associated with the compound CC(C)C[C@@H]1NC(=O)[C@@H](N(C)C(=O)[C@@H](NC(=O)[C@@H]2C[C@@H](F)CN2C(=O)C2(C(F)(F)F)CC2)C2CC2)CC=CCCCCNC(=O)[C@H](Cc2cc(Cl)ccc2Cl)N(C)C1=O (single isomer, unassigned) [Example 5-P2]
6.34

Name the reported pIC50 value associated with the compound CC(C)C[C@@H]1NC(=O)[C@@H](N(C)C(=O)[C@@H](NC(=O)[C@@H]2C[C@@H](F)CN2C(=O)C2(C(F)(F)F)CC(F)(F)C2)C2CC2)CCCCCCCN(C)C(=O)[C@H](Cc2cc(Cl)cc3ccccc23)N(C)C1=O [Example 425] ({cBuCO(3,3-F2-1-CF3)}-[Pro(trans-4-F)][Gly(cPr)][NMehhhLys(Me)]L[X156]; lactam 3-C)
6.68

====

Please go through the items and note down their GI50.
- Tested on: OVCAR3 cells
- Assay summary: MTT proliferation assay, OVCAR3;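 also: compound given as an 8- or 10-point series, one day after plating, with exposure covering roughly 3-4 cell doublings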
- Format: cell-based
- Settings: 5 days compound exposure, 1:3 serial dilution starting at 10 μM
*1 amine or outer side, *2 acyl side, *3 side chain or, on linkers, in order; H or OH if unused. Where a SMILES comes first, the peptide text is derived from it. Bridges are numbered along the chain shown (N, C = ends). [ ]: non-standard residue; d: D form. The star is where a group is joined. X52 = CN1C[C@@H]2C[C@H]1CN2c1ccc(-c2ccc(Cl)cc2C[C@@H](C(=O)[*:2])N(C)[*:1])cc1; X137 = CN([C@@H](Cc1cc(F)ccc1-c1cnn(S(C)(=O)=O)c1)C(=O)[*:2])[*:1]; NMehhhLys(Me) = CN([C@@H](CCCCCCCN(C)[*:3])C(=O)[*:2])[*:1]; cBuCO(3,3-F2-1-CF3) = O=C(C1(C(F)(F)F)CC(F)(F)C1)*; Pro(trans-4-F) = O=C(O)[C@@H]1C[C@@H](F)CN1; Pivaloyl(3,3,3-F3) = CC(C)(C(=O)*)C(F)(F)F; Gly(cPr) = N[C@H](C(=O)O)C1CC1
Write the numeric value and follow it with the unit.

Which GI50 is reported with OVCAR3 cells for this entry: CC(C)C[C@@H]1NC(=O)[C@@H](N(C)C(=O)[C@@H](NC(=O)[C@@H]2C[C@@H](F)CN2C(=O)C2(C(F)(F)F)CC(F)(F)C2)C2CC2)CC=CCCCCNC(=O)[C@H](Cc2cc(Cl)ccc2Cl)N(C)C1=O (single isomer, unassigned) [Example 6-P2] ?
0.07 µM

Which GI50 is reported with OVCAR3 cells for this entry: CC(C)C[C@@H]1NC(=O)[C@@H](N(C)C(=O)[C@@H](NC(=O)[C@@H]2C[C@@H](F)CN2C(=O)C2(C(F)(F)F)CC(F)(F)C2)C2CC2)CCCCCCCN(C)C(=O)[C@H](Cc2cc(Cl)ccc2-c2ccc(N3C[C@@H]4C[C@H]3CN4C)cc2)N(C)C1=O [Example 357] ({cBuCO(3,3-F2-1-CF3)}-[Pro(trans-4-F)][Gly(cPr)][NMehhhLys(Me)]L[X52]; lactam 3-C) ?
0.05 µM

Which GI50 is reported with OVCAR3 cells for this entry: CC(C)C[C@@H]1NC(=O)[C@@H](N(C)C(=O)[C@@H](NC(=O)[C@@H]2C[C@@H](F)CN2C(=O)C(C)(C)C(F)(F)F)C2CC2)CCCCCCCN(C)C(=O)[C@H](Cc2cc(F)ccc2-c2cnn(S(C)(=O)=O)c2)N(C)C1=O [Example 304] ({Pivaloyl(3,3,3-F3)}-[Pro(trans-4-F)][Gly(cPr)][NMehhhLys(Me)]L[X137]; lactam 3-C) ?
0.01 µM

====

- Assayed system: CyclinE1/CDK2 (Homo sapiens)
- Construct: purchased Eurofins, discovery 14-475
- Assay summary: Fluorescence Polarization (FP) competitive binding assay, Cyclin E1/Cdk2;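 also: readings taken after two-hour equilibration at room temperature in HEPES buffer with NaCl, DTT, NP-40 and BSA, IC50 fitted from eight-concentration serial dilution series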
- Settings: 10 nM Cyclin E1/Cdk2, 2 nM FAM probe; average of 2-3 independent experiments; read-out: Cyclin E FP IC50
*1 amine or outer side, *2 acyl side, *3 side chain or, on linkers, in order; H or OH if unused. Where a SMILES comes first, the peptide text is derived from it. Bridges are numbered along the chain shown (N, C = ends). [ ]: non-standard residue; d: D form. The star is where a group is joined. NMePhe(2-(4-MorPh),5-Cl) = CN[C@@H](Cc1cc(Cl)ccc1-c1ccc(N2CCOCC2)cc1)C(=O)O; X169 = CN([C@@H](Cc1cc(Cl)ccc1-c1ccc(-c2cnn3c2COCC3)cc1)C(=O)[*:2])[*:1]; X46 = CN([C@@H](Cc1cc(Cl)ccc1-c1ccc(S(C)(=O)=O)cc1)C(=O)[*:2])[*:1]; X58 = CC(C)C(=O)N1CC=C(c2ccc(Cl)cc2C[C@@H](C(=O)[*:2])N(C)[*:1])CC1; X56 = CN1CCc2cc(-c3ccc(Cl)cc3C[C@@H](C(=O)[*:2])N(C)[*:1])ccc2C1; X189 = CN([C@@H](Cc1cc(Cl)ccc1-c1ccc2scnc2c1)C(=O)[*:2])[*:1]; NMehhhLys(Me) = CN([C@@H](CCCCCCCN(C)[*:3])C(=O)[*:2])[*:1]; X112 = CN([C@@H](Cc1cc(F)ccc1-c1cnn(C)c1)C(=O)[*:2])[*:1]; NMe3Pal(2-OcPr,5-F) = CN[C@@H](Cc1cc(F)cnc1OC1CC1)C(=O)O; NMe(hhhLys) = CN([C@@H](CCCCCCCN[*:3])C(=O)[*:2])[*:1]; X41 = CN([C@@H](Cc1cc(Cl)cc2c1ccn2C)C(=O)[*:2])[*:1]; Cyclopropanecarbonyl(1-CF3) = O=C(C1(C(F)(F)F)CC1)*; cBuCO(3,3-F2-1-CF3) = O=C(C1(C(F)(F)F)CC(F)(F)C1)*; NMePhe(2,5-Cl2) = CN[C@@H](Cc1cc(Cl)ccc1Cl)C(=O)O; Pro(trans-4-F) = O=C(O)[C@@H]1C[C@@H](F)CN1; Gly(cPr) = N[C@H](C(=O)O)C1CC1; X9 = C[C@@]1(C(=O)*)CC1(F)F
Quick rule for you: IC50 under 1000 nM gets Criterion met, anything else gets Criterion not met.

Please indicate whether the reported IC50 of CC(C)C[C@@H]1NC(=O)[C@@H](N(C)C(=O)[C@@H](NC(=O)[C@@H]2C[C@@H](F)CN2C(=O)C2(C(F)(F)F)CC(F)(F)C2)C2CC2)CCCCCCCN(C)C(=O)[C@H](Cc2cc(Cl)ccc2-c2ccc3c(c2)CCN(C)C3)N(C)C1=O [Example 407] ({cBuCO(3,3-F2-1-CF3)}-[Pro(trans-4-F)][Gly(cPr)][NMehhhLys(Me)]L[X56]; lactam 3-C) is strictly below 1000 nM.
Criterion not met

Please indicate whether the reported IC50 of CC(C)C[C@@H]1NC(=O)[C@@H](N(C)C(=O)[C@@H](NC(=O)[C@@H]2C[C@@H](F)CN2C(=O)C2(C(F)(F)F)CC(F)(F)C2)C2CC2)CCCCCCCN(C)C(=O)[C@H](Cc2cc(F)ccc2-c2cnn(C)c2)N(C)C1=O [Example 65] ({cBuCO(3,3-F2-1-CF3)}-[Pro(trans-4-F)][Gly(cPr)][NMehhhLys(Me)]L[X112]; lactam 3-C) is strictly below 1000 nM.
Criterion met

Please indicate whether the reported IC50 of CC(C)C[C@@H]1NC(=O)[C@@H](N(C)C(=O)[C@@H](NC(=O)[C@@H]2C[C@@H](F)CN2C(=O)C2(C(F)(F)F)CC(F)(F)C2)C2CC2)CCCCCCCN(C)C(=O)[C@H](Cc2cc(Cl)ccc2-c2ccc(S(C)(=O)=O)cc2)N(C)C1=O [Example 262] ({cBuCO(3,3-F2-1-CF3)}-[Pro(trans-4-F)][Gly(cPr)][NMehhhLys(Me)]L[X46]; lactam 3-C) is strictly below 1000 nM.
Criterion met

Please indicate whether the reported IC50 of CC(C)C[C@@H]1NC(=O)[C@@H](N(C)C(=O)[C@@H](NC(=O)[C@@H]2C[C@@H](F)CN2C(=O)C2(C(F)(F)F)CC(F)(F)C2)C2CC2)CCCCCCCN(C)C(=O)[C@H](Cc2cc(Cl)cc3c2ccn3C)N(C)C1=O [Example 393] ({cBuCO(3,3-F2-1-CF3)}-[Pro(trans-4-F)][Gly(cPr)][NMehhhLys(Me)]L[X41]; lactam 3-C) is strictly below 1000 nM.
Criterion not met

Please indicate whether the reported IC50 of CC(C)C[C@@H]1NC(=O)[C@@H](N(C)C(=O)[C@@H](NC(=O)[C@@H]2C[C@@H](F)CN2C(=O)C2(C(F)(F)F)CC(F)(F)C2)C2CC2)CCCCCCCN(C)C(=O)[C@H](Cc2cc(F)cnc2OC2CC2)N(C)C1=O [Example 128] ({cBuCO(3,3-F2-1-CF3)}-[Pro(trans-4-F)][Gly(cPr)][NMehhhLys(Me)]L[NMe3Pal(2-OcPr,5-F)]; lactam 3-C) is strictly below 1000 nM.
Criterion met

Please indicate whether the reported IC50 of CC(C)C[C@@H]1NC(=O)[C@@H](N(C)C(=O)[C@@H](NC(=O)[C@@H]2C[C@@H](F)CN2C(=O)[C@]2(C)CC2(F)F)C2CC2)CCCCCCCN(C)C(=O)[C@H](Cc2cc(Cl)ccc2-c2ccc(N3CCOCC3)cc2)N(C)C1=O [Example 399] (X9-[Pro(trans-4-F)][Gly(cPr)][NMehhhLys(Me)]L[NMePhe(2-(4-MorPh),5-Cl)]; lactam 3-C) is strictly below 1000 nM.
Criterion not met

Please indicate whether the reported IC50 of CC(C)C[C@@H]1NC(=O)[C@@H](N(C)C(=O)[C@@H](NC(=O)[C@@H]2C[C@@H](F)CN2C(=O)C2(C(F)(F)F)CC2)C2CC2)CCCCCCCNC(=O)[C@H](Cc2cc(Cl)ccc2Cl)N(C)C1=O [Example 9] ({Cyclopropanecarbonyl(1-CF3)}-[Pro(trans-4-F)][Gly(cPr)][NMe(hhhLys)]L[NMePhe(2,5-Cl2)]; lactam 3-C) is strictly below 1000 nM.
Criterion met

Please indicate whether the reported IC50 of CC(C)C[C@@H]1NC(=O)[C@@H](N(C)C(=O)[C@@H](NC(=O)[C@@H]2C[C@@H](F)CN2C(=O)C2(C(F)(F)F)CC(F)(F)C2)C2CC2)CCCCCCCN(C)C(=O)[C@H](Cc2cc(Cl)ccc2-c2ccc3scnc3c2)N(C)C1=O [Example 169] ({cBuCO(3,3-F2-1-CF3)}-[Pro(trans-4-F)][Gly(cPr)][NMehhhLys(Me)]L[X189]; lactam 3-C) is strictly below 1000 nM.
Criterion not met

Please indicate whether the reported IC50 of CC(C)C[C@@H]1NC(=O)[C@@H](N(C)C(=O)[C@@H](NC(=O)[C@@H]2C[C@@H](F)CN2C(=O)C2(C(F)(F)F)CC(F)(F)C2)C2CC2)CCCCCCCN(C)C(=O)[C@H](Cc2cc(Cl)ccc2-c2ccc(-c3cnn4c3COCC4)cc2)N(C)C1=O [Example 378] ({cBuCO(3,3-F2-1-CF3)}-[Pro(trans-4-F)][Gly(cPr)][NMehhhLys(Me)]L[X169]; lactam 3-C) is strictly below 1000 nM.
Criterion not met

Please indicate whether the reported IC50 of CC(C)C[C@@H]1NC(=O)[C@@H](N(C)C(=O)[C@@H](NC(=O)[C@@H]2C[C@@H](F)CN2C(=O)C2(C(F)(F)F)CC(F)(F)C2)C2CC2)CCCCCCCN(C)C(=O)[C@H](Cc2cc(Cl)ccc2C2=CCN(C(=O)C(C)C)CC2)N(C)C1=O [Example 143] ({cBuCO(3,3-F2-1-CF3)}-[Pro(trans-4-F)][Gly(cPr)][NMehhhLys(Me)]L[X58]; lactam 3-C) is strictly below 1000 nM.
Criterion met

Please indicate whether the reported IC50 of CC(C)C[C@@H]1NC(=O)[C@@H](N(C)C(=O)[C@@H](NC(=O)[C@@H]2C[C@@H](F)CN2C(=O)C2(C(F)(F)F)CC3(CCC3)C2)C2CC2)CC=CCCCCNC(=O)[C@H](Cc2cc(Cl)ccc2Cl)N(C)C1=O (single isomer, unassigned) [Example 16-P2] is strictly below 1000 nM.
Criterion not met
